# Test method notes: self-splicing fitness, log relative to wild type (ln ratio); higher = more splicing; Tetrahymena group I intron in knt gene, E. coli kanamycin selection, DiMSum; sequences stand for … in CUCUCU…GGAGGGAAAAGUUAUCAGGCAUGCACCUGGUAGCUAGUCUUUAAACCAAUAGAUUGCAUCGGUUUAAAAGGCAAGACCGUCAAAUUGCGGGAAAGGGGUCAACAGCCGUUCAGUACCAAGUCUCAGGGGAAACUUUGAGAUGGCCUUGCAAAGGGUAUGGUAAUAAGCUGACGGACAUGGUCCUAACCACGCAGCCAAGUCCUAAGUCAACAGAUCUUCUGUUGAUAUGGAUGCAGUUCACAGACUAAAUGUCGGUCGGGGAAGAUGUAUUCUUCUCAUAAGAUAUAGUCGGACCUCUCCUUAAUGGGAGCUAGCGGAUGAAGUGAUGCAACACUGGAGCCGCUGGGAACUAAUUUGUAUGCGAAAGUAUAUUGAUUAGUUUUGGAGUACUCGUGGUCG;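 also: selection with 25 µg/mL kanamycin versus none on LB agar overnight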
# Condition set: 30 °C
If the reported self-splicing fitness (ln) equals or exceeds -3, assign true (1). If not, assign false (0).

Data request: Check the entry `UAUAAGCAAUAUUACGUCAG` : does self-splicing fitness (ln) equal or exceed -3?
Data returned: true (1)

Data request: Check the entry `CGUGAGCAAUAUUACGUUUC` : does self-splicing fitness (ln) equal or exceed -3?
Data returned: false (0)

Data request: Check the entry `CUGCAGCAAUAUUACGUACG` : does self-splicing fitness (ln) equal or exceed -3?
Data returned: true (1)

Data request: Check the entry `CACGAGCAAUAUUACGAUAG` : does self-splicing fitness (ln) equal or exceed -3?
Data returned: false (0)

Data request: Check the entry `CGAAAGCAAUAUUACGCUAA` : does self-splicing fitness (ln) equal or exceed -3?
Data returned: false (0)

Data request: Check the entry `AGGUAGCAAUAUUACGCGGU` : does self-splicing fitness (ln) equal or exceed -3?
Data returned: false (0)

Data request: Check the entry `GACCAGCAAUAUUACGAUUA` : does self-splicing fitness (ln) equal or exceed -3?
Data returned: true (1)

Data request: Check the entry `AGGGAGCAAUAUUACGCGUA` : does self-splicing fitness (ln) equal or exceed -3?
Data returned: false (0)

Data request: Check the entry `GUUUAGCAAUAUUACGGGGG` : does self-splicing fitness (ln) equal or exceed -3?
Data returned: false (0)

Data request: Check the entry `UACUAGCAAUAUUACGCGCU` : does self-splicing fitness (ln) equal or exceed -3?
Data returned: false (0)

Data request: Check the entry `CAAAAGCAAUAUUACGGUUC` : does self-splicing fitness (ln) equal or exceed -3?
Data returned: false (0)

Data request: Check the entry `AGCCAGCAAUAUUACGGGCU` : does self-splicing fitness (ln) equal or exceed -3?
Data returned: false (0)

Data request: Check the entry `GGACAGCAAUAUUACGAAGG` : does self-splicing fitness (ln) equal or exceed -3?
Data returned: false (0)

Data request: Check the entry `AUGGAGCAAUAUUACGGGGG` : does self-splicing fitness (ln) equal or exceed -3?
Data returned: false (0)

Data request: Check the entry `GCUCAGCAAUAUUACGCGUA` : does self-splicing fitness (ln) equal or exceed -3?
Data returned: true (1)

Data request: Check the entry `CACCAGCAAUAUUACGACCC` : does self-splicing fitness (ln) equal or exceed -3?
Data returned: false (0)

Data request: Check the entry `ACCGAGCAAUAUUACGGACG` : does self-splicing fitness (ln) equal or exceed -3?
Data returned: true (1)

----------
# Test method notes: self-splicing fitness, log relative to wild type (ln ratio); higher = more splicing; Tetrahymena group I intron in knt gene, E. coli kanamycin selection, DiMSum; sequences stand for … in CUCUCU…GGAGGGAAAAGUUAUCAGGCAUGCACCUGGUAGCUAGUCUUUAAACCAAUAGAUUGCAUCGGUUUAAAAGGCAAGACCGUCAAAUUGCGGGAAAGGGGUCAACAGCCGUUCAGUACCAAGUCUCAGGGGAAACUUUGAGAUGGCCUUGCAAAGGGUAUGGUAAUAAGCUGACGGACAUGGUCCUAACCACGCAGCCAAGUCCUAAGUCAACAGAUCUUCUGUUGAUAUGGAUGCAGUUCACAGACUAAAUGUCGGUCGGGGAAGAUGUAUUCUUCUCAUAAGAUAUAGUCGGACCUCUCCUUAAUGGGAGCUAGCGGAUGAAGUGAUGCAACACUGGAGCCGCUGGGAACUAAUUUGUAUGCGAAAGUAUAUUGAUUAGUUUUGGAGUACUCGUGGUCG
# Condition set: 37 °C
If the reported self-splicing fitness (ln) equals or exceeds -2, assign 1 (yes). If not, assign 0 (no).

Data request: Check the entry `CCCCAGCAAUAUUACGCAUA` : does self-splicing fitness (ln) equal or exceed -2?
Data returned: 0 (no)

Data request: Check the entry `AACGAGCAAUAUUACGUGGG` : does self-splicing fitness (ln) equal or exceed -2?
Data returned: 0 (no)

Data request: Check the entry `UAUCAGCAAUAUUACGGAGG` : does self-splicing fitness (ln) equal or exceed -2?
Data returned: 1 (yes)

Data request: Check the entry `CUCGAGCAAUAUUACGCCUU` : does self-splicing fitness (ln) equal or exceed -2?
Data returned: 0 (no)

Data request: Check the entry `UUAGAGCAAUAUUACGUCGC` : does self-splicing fitness (ln) equal or exceed -2?
Data returned: 1 (yes)

Data request: Check the entry `CACUAGCAAUAUUACGCUAA` : does self-splicing fitness (ln) equal or exceed -2?
Data returned: 1 (yes)

Data request: Check the entry `AUUUAGCAAUAUUACGGGGG` : does self-splicing fitness (ln) equal or exceed -2?
Data returned: 0 (no)

Data request: Check the entry `GUAAAGCAAUAUUACGUCGA` : does self-splicing fitness (ln) equal or exceed -2?
Data returned: 1 (yes)

Data request: Check the entry `AAAGAGCAAUAUUACGUCGG` : does self-splicing fitness (ln) equal or exceed -2?
Data returned: 1 (yes)

Data request: Check the entry `CGGUAGCAAUAUUACGGUAU` : does self-splicing fitness (ln) equal or exceed -2?
Data returned: 0 (no)

Data request: Check the entry `UGACAGCAAUAUUACGUAUG` : does self-splicing fitness (ln) equal or exceed -2?
Data returned: 1 (yes)

Data request: Check the entry `UAUUAGCAAUAUUACGCACA` : does self-splicing fitness (ln) equal or exceed -2?
Data returned: 1 (yes)

Data request: Check the entry `UGCAAGCAAUAUUACGCGUA` : does self-splicing fitness (ln) equal or exceed -2?
Data returned: 1 (yes)

----------
Assign self-splicing fitness (ln) to each entry below.
# Test method notes: self-splicing fitness, log relative to wild type (ln ratio); higher = more splicing; Tetrahymena group I intron in knt gene, E. coli kanamycin selection, DiMSum; sequences stand for … in CUCUCU…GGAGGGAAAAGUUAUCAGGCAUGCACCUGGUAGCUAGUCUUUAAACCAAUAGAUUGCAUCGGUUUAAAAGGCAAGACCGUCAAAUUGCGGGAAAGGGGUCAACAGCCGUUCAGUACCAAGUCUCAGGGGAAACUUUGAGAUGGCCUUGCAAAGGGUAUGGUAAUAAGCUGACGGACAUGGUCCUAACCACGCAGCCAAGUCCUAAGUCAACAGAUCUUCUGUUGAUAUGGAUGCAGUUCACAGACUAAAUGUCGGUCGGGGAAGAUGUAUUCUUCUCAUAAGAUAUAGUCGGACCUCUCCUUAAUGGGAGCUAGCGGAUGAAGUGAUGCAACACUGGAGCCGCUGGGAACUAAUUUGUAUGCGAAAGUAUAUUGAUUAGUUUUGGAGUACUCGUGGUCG
# Condition set: 30 °C
Format: numeric value only, no unit, no commentary.

Looking up `AACGAGCAAUAUUACGAACG` , I see its self-splicing fitness (ln) listed as -3.03

Looking up `ACUAAGCAAUAUUACGACUC` , I see its self-splicing fitness (ln) listed as -0.352

Looking up `UGUAAGCAAUAUUACGGCCC` , I see its self-splicing fitness (ln) listed as -2.98

Looking up `UACGAGCAAUAUUACGAGGA` , I see its self-splicing fitness (ln) listed as -3.51

Looking up `UUCAAGCAAUAUUACGGACG` , I see its self-splicing fitness (ln) listed as -1.48

Looking up `CCCAAGCAAUAUUACGCUAG` , I see its self-splicing fitness (ln) listed as -2.63

Looking up `CGAGAGCAAUAUUACGUUAA` , I see its self-splicing fitness (ln) listed as -2.26

Looking up `GGUCAGCAAUAUUACGCGUG` , I see its self-splicing fitness (ln) listed as -0.989

Looking up `GCGAAGCAAUAUUACGAUCA` , I see its self-splicing fitness (ln) listed as -1.82

----------
# Test method notes: self-splicing fitness, log relative to wild type (ln ratio); higher = more splicing; Tetrahymena group I intron in knt gene, E. coli kanamycin selection, DiMSum; sequences stand for … in CUCUCU…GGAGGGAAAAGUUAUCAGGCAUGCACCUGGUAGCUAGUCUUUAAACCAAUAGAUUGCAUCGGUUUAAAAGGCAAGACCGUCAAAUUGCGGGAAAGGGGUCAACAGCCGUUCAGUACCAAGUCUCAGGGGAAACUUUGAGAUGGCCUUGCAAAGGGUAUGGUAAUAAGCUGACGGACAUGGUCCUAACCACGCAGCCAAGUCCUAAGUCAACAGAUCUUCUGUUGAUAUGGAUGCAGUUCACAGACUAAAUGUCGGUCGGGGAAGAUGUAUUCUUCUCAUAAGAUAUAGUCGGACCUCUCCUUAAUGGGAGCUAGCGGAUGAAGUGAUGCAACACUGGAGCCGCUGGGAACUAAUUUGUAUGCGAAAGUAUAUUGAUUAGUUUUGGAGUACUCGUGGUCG
# Condition set: 30 °C
If the reported self-splicing fitness (ln) equals or exceeds -2, assign TRUE. If not, assign FALSE.

Data request: Check the entry `ACUUAGCAAUAUUACGGGUU` : does self-splicing fitness (ln) equal or exceed -2?
Data returned: FALSE

Data request: Check the entry `AAAAAGCAAUAUUACGUAGU` : does self-splicing fitness (ln) equal or exceed -2?
Data returned: FALSE

Data request: Check the entry `ACCGAGCAAUAUUACGAUUU` : does self-splicing fitness (ln) equal or exceed -2?
Data returned: FALSE

Data request: Check the entry `CAAUAGCAAUAUUACGGAUC` : does self-splicing fitness (ln) equal or exceed -2?
Data returned: FALSE

Data request: Check the entry `GUUAAGCAAUAUUACGCGUU` : does self-splicing fitness (ln) equal or exceed -2?
Data returned: TRUE

Data request: Check the entry `GAUUAGCAAUAUUACGACCA` : does self-splicing fitness (ln) equal or exceed -2?
Data returned: TRUE

Data request: Check the entry `UUGUAGCAAUAUUACGCCUG` : does self-splicing fitness (ln) equal or exceed -2?
Data returned: TRUE

Data request: Check the entry `GGUGAGCAAUAUUACGAUUG` : does self-splicing fitness (ln) equal or exceed -2?
Data returned: FALSE

Data request: Check the entry `CAUCAGCAAUAUUACGUGCC` : does self-splicing fitness (ln) equal or exceed -2?
Data returned: FALSE
